Quick list: IC50 per entry.
target: recombinant human serotonin transporter (Homo sapiens, UniProt P31645); construct: expressed in transfected cells; host or cells: HEK-293; assay: Serotonin functional uptake assay for human reuptake transporter; type: cell-based; conditions: [3H]serotonin uptake, HEK-293 cells expressing human serotonin transporter; read-out: Human IC50 (nM) SERT
Sequence (P31645 whole entry): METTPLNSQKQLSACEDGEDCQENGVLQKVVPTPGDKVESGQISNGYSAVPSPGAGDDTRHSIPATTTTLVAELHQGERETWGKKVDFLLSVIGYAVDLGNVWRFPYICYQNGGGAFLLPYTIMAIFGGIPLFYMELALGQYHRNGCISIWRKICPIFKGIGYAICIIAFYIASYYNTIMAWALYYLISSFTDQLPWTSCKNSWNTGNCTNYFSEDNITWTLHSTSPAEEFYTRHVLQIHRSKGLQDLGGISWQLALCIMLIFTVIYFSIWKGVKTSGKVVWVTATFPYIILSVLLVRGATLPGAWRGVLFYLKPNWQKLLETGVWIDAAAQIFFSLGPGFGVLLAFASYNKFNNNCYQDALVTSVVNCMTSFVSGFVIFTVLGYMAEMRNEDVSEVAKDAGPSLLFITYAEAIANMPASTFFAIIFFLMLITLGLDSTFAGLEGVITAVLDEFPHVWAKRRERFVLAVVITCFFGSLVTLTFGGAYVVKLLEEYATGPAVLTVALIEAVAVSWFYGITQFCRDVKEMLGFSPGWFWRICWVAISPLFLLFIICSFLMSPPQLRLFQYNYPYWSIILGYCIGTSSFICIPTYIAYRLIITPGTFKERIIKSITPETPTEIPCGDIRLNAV
Report only the number, with the unit nM understood.

Solved cases below.
[
  {
    "compound": "CN(C)C1CC(c2ccc(Cl)c(Cl)c2)c2ccccc2C1O (single isomer, unassigned) [Compound 23d]",
    "readout_unit": "nM",
    "IC50": 48
  },
  {
    "compound": "CN(C)[C@@H]1c2ccccc2CC[C@@H]1c1ccc(Cl)c(Cl)c1 (single isomer, unassigned) [Compound 41a]",
    "readout_unit": "nM",
    "IC50": 3170
  },
  {
    "compound": "CNC(C)C1=Cc2ccccc2[C@H](c2ccc(Cl)c(Cl)c2)C1 (single isomer, unassigned)",
    "readout_unit": "nM",
    "IC50": 44
  }
]

Ask | Record request: IC50 value, item COc1ccc2c(c1)C[C@H](N(C)C)C[C@@H]2c1ccc(Cl)c(Cl)c1 (single isomer, unassigned) [Compound 33c.4]
Reply | 92

---

Let's look at some compounds and their measured IC50.
target: recombinant human serotonin transporter (Homo sapiens); construct: expressed in transfected cells; host or cells: HEK-293; assay: Serotonin functional uptake assay for human reuptake transporter; type: cell-based; settings: [3H]serotonin uptake, HEK-293 cells expressing human serotonin transporter; read-out: Human IC50 (nM) SERT
Number in nM, nothing else.

Solved cases below.
[
  {
    "compound": "CC1C[C@@H](c2ccc(Cl)c(Cl)c2)c2ccccc2/C1=N\\O (single isomer, unassigned) [Compound 58]",
    "target_of_assay": "recombinant human serotonin transporter (Homo sapiens)",
    "observed_result": 1700
  },
  {
    "compound": "CN[C@H]1Cc2cc(OC)ccc2[C@@H](c2ccc(Cl)c(Cl)c2)C1 (single isomer, unassigned) [Compound 32c.4]",
    "target_of_assay": "recombinant human serotonin transporter (Homo sapiens)",
    "observed_result": 209
  },
  {
    "compound": "CN(C)[C@H]1CCc2ccccc2[C@H]1c1ccc(Cl)c(Cl)c1 (single isomer, unassigned) [Compound 37c]",
    "target_of_assay": "recombinant human serotonin transporter (Homo sapiens)",
    "observed_result": 70
  },
  {
    "compound": "CN(C)C1CC(c2ccc(Cl)c(Cl)c2)c2ccccc2C1O (single isomer, unassigned) [Compound 23a]",
    "target_of_assay": "recombinant human serotonin transporter (Homo sapiens)",
    "observed_result": 117
  },
  {
    "compound": "CC(N)[C@@H]1Cc2ccccc2[C@H](c2ccc(Cl)c(Cl)c2)C1 (stereo partly shown) [Compound 51]",
    "target_of_assay": "recombinant human serotonin transporter (Homo sapiens)",
    "observed_result": 2
  },
  {
    "compound": "CC(N)C1=Cc2ccccc2[C@H](c2ccc(Cl)c(Cl)c2)C1 (single isomer, unassigned) [Compound 46]",
    "target_of_assay": "recombinant human serotonin transporter (Homo sapiens)",
    "observed_result": 50
  }
]

Continue with the next compound.
Ask | Which IC50 is reported for this compound? COc1ccc2c(c1)C(c1ccc(Cl)c(Cl)c1)CC(N(C)C)C2 (single isomer, unassigned) [Compound 33a.3]
Reply | 207

Numbers sourced from patent US8053603B2.
